target: pooled human IgG
measuredQuantity: Enzyme Activity Endpoint Assay (purified): Fab'2 (ng/µL)
Please give a number only; it is taken to be in ng/µL.

Request: Suppose we examine the protein PRT-140 (protein) MRNATEAYAKEVPHQITSVWTKGVTPLTPEQFRYNNEDVIHAPYLAHQGWYDITKAFNGKDNLLCGAATAGNMLHWWFDQNKTEIEAYLSKHPEKQKIIFNNQELFDLKAAIDTKDSQTNSQLFNYFRDKAFPNLSARQLGVMPDLVLDMFINGYYLNVFKTQSTDVNRPYQDKDKRGGIFDAVFTRGDQTTLLTARHDLKNKGLNDISTIIKQELTEGRALALSHTYANVSISHVINLWGADFNAEGNLEAIYVTDSDANASIGMKKYFVGINAHGHVAISAKKIEGENIGAQVLGLFTLSSGKDIWQKLS ; what Enzyme Activity Endpoint Assay (purified): Fab'2 value has been reported?
Result: 755

Request: Suppose we examine the protein PRT-158 (protein) MANQEIRYSEVTPYHVTSVWTKGVTPPTDFIKGEDVFHAPYKAHQGWYDITKTFNGKDDLLCGAATAGNMLHWWFDQNKDQIKRYLEEHPEKQKINFNGEQMFDVKEAIDTKNHQLDSKLFEYFKEKAFPYLSTKHLGVFPDHVIDMFINGYRLSLTNHGPTPVKEGSKDPRGGIFDAVFTRGDQSKLLTSRHDFKEKNLKEISDLIKKELQEGKALGLSHTYANVRINHVINLWGADFDSNGNLKAIYVTDSDSNASIGMKKYFVGVNSAGKVAISAKEIKEDNIGAQVLGLFTLSTGQDSWNQTN ; what Enzyme Activity Endpoint Assay (purified): Fab'2 value has been reported?
Result: 637

Request: Suppose we examine the protein PRT-330 (protein) MTITSVWTKGVTPPTPEDFRENNEDVLHAPYVANQGWYDITKTFDGKDNLLCGAATAGNMLHWWFDQNKEEIERYLKKHPEKQKIIFGNQELFDVKAAIDTKDSQTNSKLFDYFRDKAFPGLSARQLGVFPDLVLDMFINGYYLNLGKTQSTDVNRPYQDKDKRGGIFDAVFTRGVQTTLLTARHDLKNKGLNEISDLIKQELTEGKALALSHTYANVRINHVINLWGADFDAEGNLIAIYVTDSDANASIGMKKYFVGRNANGKVAISAKKIEGDNIGAQVLGLFTLSTGQDQWQKLS ; what Enzyme Activity Endpoint Assay (purified): Fab'2 value has been reported?
Result: 493

Request: Suppose we examine the protein PRT-231 (protein) MEVVEVWPYGQNPNGKTEILSQTEDSESLQRLRDIEDFQAEKKMQNVVYTKWLDGVDVKDHDFRKIVDGNIAYYATPLLNGRGFYDINKDFNRDSDKCAAAVAANMFHYWLDINRDNVDRFLRQNPEKHGIIELPDGQLKLSDFLNTYESDHGYRDKSKLFDFISNNFNGPVWTDKLLDNYINGYAYNYKYGRTIEDPTKNTSKINFFKEVFNEKILTNNHSIRNQNEFSVLLSEALYTGKAIGLSYGPAGLRHSLGHIISVWGADLDADGNVVAIYVTDSDDKKLTIGDERVGLKRYKISTDDENRARLTAYEETHNTGGQIRGLWTLDTGKYAWADYFDKTEQTGTDQAEQLEHHHHHH ; what Enzyme Activity Endpoint Assay (purified): Fab'2 value has been reported?
Result: 176
